assay: folding stability dG unfold (combined trypsin and chymotrypsin); higher = more stable
Overview of reported folding stability dG unfold across a group of sequences:

SEQUENCE STRING	folding stability dG unfold
SAGGSAGGSAGGSGAEEAAKAVREAFPELGVPILVEVGYIPGTKELPVRVYIPSTRLELSAGGSAGGSAGGS [r4_312_TrMRF]	< -1 kcal/mol
SAGGSAGGSAGGMEKKLTLVTTRTPEGGSETILVDDSDPEKVRAELEEAGWTITETTSSSAGGSAGGSAGGS [r10_882_JUSTAS]	< -1 kcal/mol
SAGGSAGGSAGGSPEVVPVDHPDRELLLVRFPDSVVLTDPSAPGASRTFPADTDVVVDASAGGSAGGSAGGS [r4_321_TrMRF]	< -1 kcal/mol
SAGGSAGGSAGGMKPGEPVEIKIPVPGNGKKIPIEIPVGMPPEQARKFAKEIAEELEKNHSAGGSAGGSAGG [r7_957_TrROS]	< -1 kcal/mol

====

The following sequences are shown together with reported folding stability dG unfold values.
assay: folding stability dG unfold (combined trypsin and chymotrypsin); higher = more stable

SEQUENCE STRING	folding stability dG unfold
SAGGSAGGSAGPKPIEFEDPDNGRKIEYWPEENQISIENPGDGKEKEYPMDSPEELKEWMSAGGSAGGSAGG [r11_936_TrROS]	< -1 kcal/mol
SAGGSAGGSGKTIIIPLPNGNVIKVEVEEGSVKITYPKPKKELIKVENPKNALKNIKTYSYKGSAGGSAGGS [r12_32_TrMRF]	< -1 kcal/mol
SAGGSAGGSEGQPIIIKIKMENPGNGKKHKFDIMVPPGFKNAEEQANRLMNNFGPVKDVEIYPSAGGSAGGS [r12_942_TrROS]	< -1 kcal/mol

====

Measured folding stability dG unfold values are reported for all entries that follow.
assay: folding stability dG unfold (combined trypsin and chymotrypsin); higher = more stable

SEQUENCE STRING	folding stability dG unfold
SAGGSAGGSSVLRVTVEIPETGETVELTVPPSVTEEDVRARIEAEGHAIEKIEVTESEVPPLASAGGSAGGS [r12_955_JUSTAS]	< -1 kcal/mol
SAGGSAGGSMKVITVPLPDGGTTTYEVEKGKVTITYPPSVTKEIEVPDPSKAIENIETVSYKSSAGGSAGGS [r12_32_JUSTAS]	< -1 kcal/mol
SAGGSAGGSAGMKTYTVPLPGGDPALIEQTAQDIVEKIPGLEDHEVKVDAGDDGTLTIVESAGGSAGGSAGG [r17_324_JUSTAS]	< -1 kcal/mol
SAGGSSMEELIKAVLEAAEAGKKAVNVKMPLPDGGEIEILDGGVIRIIPPDGVPLEEKIPVSELILSAGGSA [r2_97_JUSTAS]	< -1 kcal/mol
SAGGSAGGSAGGSMAVPQTVEVEAGAKPILVTTYRLPPDGAVVRIEYPGPAVVLEEELESAGGSAGGSAGGS [r10_630_JUSTAS]	< -1 kcal/mol
SAGGSAGGSAGGSMPKPKVIKVPVDPNVSKEEVAKEVLPKTGLNVESIEESEDVLYVLNSAGGSAGGSAGGS [r4_469_JUSTAS]	< -1 kcal/mol
SAGGSMPITVSVPVPPDVPLEEVAERIEKELREAGIEADVREVTRVPGEGRILLHFDAGKTGVIPASAGGSA [r2_242_JUSTAS]	< -1 kcal/mol

====

assay: folding stability dG unfold from trypsin proteolysis; higher = more stable
Threshold check on folding stability dG unfold: at or above -0.4 kcal/mol gives Yes, strictly below gives No.

SEQUENCE STRING	LABEL CLASS
SAGGSAGGSEGQPIIIKIKMENPGNGKKHKFDIMVPPGFKNAEEQANRLMNNFGPVKDVEIYPSAGGSAGGS [r12_942_TrROS]	No
SAGGSAGGSAGPKPIEFEDPDNGRKIEYWPEENQISIENPGDGKEKEYPMDSPEELKEWMSAGGSAGGSAGG [r11_936_TrROS]	Yes
SAGSMEVKVEIPEEVLKKIESAPPGTVVEYTETVTITTTTTIPGPGNPVPLTSTTPSPIKLTYTKPSSPSAG [r5_946_JUSTAS]	No
SAGGSAGGSAKITITAPPGETYRIKVKVKNENGEWKEVTRTIKVGEPLEDIEEVEIERIEPESAGGSAGGSA [r18_223_TrROS_Hall]	Yes
SSPGLVEVTIPLKIVLEPLAPDGTPAPRPVATVPIKTAASSEDPSAIEQAKEDVIKELKPEFPDAKFVVESA [r9_1112_JUSTAS]	Yes
SAGGSAGGSAGPPVLVSINPDENATVEVRTRPDGKPVLLFTVPKTGEVLVVHPDGKIDNSSAGGSAGGSAGG [r11_601_TrMRF]	Yes
SAGGSAGGSAGGSMAVPQTVEVEAGAKPILVTTYRLPPDGAVVRIEYPGPAVVLEEELESAGGSAGGSAGGS [r10_630_JUSTAS]	No
SAGGSMIEVEIENPDPSVSPEEIAERVIRELTPDGGPLQPLEIKPTLVGDKPVYKIKIYIPDPELIKESAGG [r13_979_JUSTAS]	No
SAGGSAGGSAGGMEKKLTLVTTRTPEGGSETILVDDSDPEKVRAELEEAGWTITETTSSSAGGSAGGSAGGS [r10_882_JUSTAS]	No
